Each item that follows carries a reported IC50.
System: SARS-CoV-2
Assay: SARS-CoV-2 antiviral assay (dose-response, automated confocal imaging of infected cells)
Assay type: cell-based, severe acute respiratory syndrome coronavirus-2
Conditions: Severe acute respiratory syndrome coronavirus 2, 16 h, SARS-CoV-2, Vero81-derived F1G-red cells, MOI 0.2, 16 h, compounds at 1.56-25 µM
PROPERTY LABEL: IC50

CCC(C)C(=O)C1=C(O)C(CC=C(C)C)=C(O)C(CC=C(C)C)(CC=C(C)C)C1=O (centres unmarked)
< 25 µM
CC(C)=CCC1=C(O)C(C(=O)CC(C)C)=C(O)C(CC=C(C)C)(CC=C(C)C)C1=O
< 7 µM
CC(C)=CCc1c(O)cc(O)c(C(=O)C(C)C)c1O
< 7 µM
CC(C)=CCC1=C(O)C(CC=C(C)C)(CC=C(C)C)C(=O)C(C(=O)CCC(C)C)=C1O
< 25 µM
CCCCC(=O)C1=C(O)C(CC=C(C)C)=C(O)C(CC=C(C)C)(CC=C(C)C)C1=O
< 14 µM
CCC(=O)C1=C(O)C(CC=C(C)C)=C(O)C(CC=C(C)C)(CC=C(C)C)C1=O
> 25 µM
CC(C)=CCC1=C(O)C(CC=C(C)C)(CC=C(C)C)C(=O)C(C(=O)C=Cc2ccccc2)=C1O
< 25 µM
CC(=O)C1=C(O)C(CC=C(C)C)=C(O)C(CC=C(C)C)(CC=C(C)C)C1=O
> 25 µM
